src = paper PMC4336329

Please provide measured hERG current change (%, negative = inhibition) at 10uM for the entries that follow.
# MEASUREMENT TARGET: human ether-à-go-go-related gene (hERG) potassium channel (human, UniProt Q12809);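 also: peak tail current of the secondary pulse compared with the same well before compound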
# Sequence (Q12809 whole entry, looked up): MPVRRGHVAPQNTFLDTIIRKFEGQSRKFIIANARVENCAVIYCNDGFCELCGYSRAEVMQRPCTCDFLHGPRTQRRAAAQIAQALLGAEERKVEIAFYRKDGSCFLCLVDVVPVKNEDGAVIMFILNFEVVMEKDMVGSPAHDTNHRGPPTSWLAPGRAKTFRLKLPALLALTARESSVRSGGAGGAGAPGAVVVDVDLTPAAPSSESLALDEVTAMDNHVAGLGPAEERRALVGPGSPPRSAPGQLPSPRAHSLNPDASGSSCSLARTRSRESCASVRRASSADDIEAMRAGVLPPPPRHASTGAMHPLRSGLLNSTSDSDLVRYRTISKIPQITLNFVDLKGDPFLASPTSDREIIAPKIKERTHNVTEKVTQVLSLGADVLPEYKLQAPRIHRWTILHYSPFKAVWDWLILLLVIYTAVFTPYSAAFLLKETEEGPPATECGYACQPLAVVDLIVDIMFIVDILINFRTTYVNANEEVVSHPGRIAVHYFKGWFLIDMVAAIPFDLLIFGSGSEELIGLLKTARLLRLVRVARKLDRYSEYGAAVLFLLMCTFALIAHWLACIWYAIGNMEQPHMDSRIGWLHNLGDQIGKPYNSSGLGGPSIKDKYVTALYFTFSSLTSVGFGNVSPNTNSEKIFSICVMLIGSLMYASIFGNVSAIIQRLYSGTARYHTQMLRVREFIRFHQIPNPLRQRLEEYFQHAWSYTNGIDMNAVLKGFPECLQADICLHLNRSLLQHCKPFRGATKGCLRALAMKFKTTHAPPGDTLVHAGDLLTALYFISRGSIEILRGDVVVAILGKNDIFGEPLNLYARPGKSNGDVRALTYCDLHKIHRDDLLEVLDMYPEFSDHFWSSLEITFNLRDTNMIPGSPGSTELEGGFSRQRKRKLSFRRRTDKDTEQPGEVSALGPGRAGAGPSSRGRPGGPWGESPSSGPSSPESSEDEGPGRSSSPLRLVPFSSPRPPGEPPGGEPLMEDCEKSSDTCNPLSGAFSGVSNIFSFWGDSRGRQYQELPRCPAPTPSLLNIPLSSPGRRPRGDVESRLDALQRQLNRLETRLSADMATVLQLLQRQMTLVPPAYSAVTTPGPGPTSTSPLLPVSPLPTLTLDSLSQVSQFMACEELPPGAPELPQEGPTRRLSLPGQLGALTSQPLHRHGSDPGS
# ASSAY SUMMARY: primary screen, population patch clamp on CHO cells stably expressing hERG; higher = less effect of the substance
Among all 310,000 compounds or so, about 14,000 (4.5%) showed an effect of 50% or more. The effect is printed as a negative number. For the sample, strong results were picked, then their nearest neighbours and some compounds at random.
// note: answer is a bare numeric in %

[in] Item `CS(=O)(=O)Nn1cnc2ccccc2c1=O` with human ether-à-go-go-related gene (hERG) potassium channel (human, UniProt Q12809) - hERG current change (%, negative = inhibition) at 10uM?
[out] 10.7

[in] Field: hERG current change (%, negative = inhibition) at 10uM (human ether-à-go-go-related gene (hERG) potassium channel (human, UniProt Q12809)). Entry: `COCCn1c(=NC(=O)CN2C(=O)CCC2=O)sc2cc(S(N)(=O)=O)ccc21`
[out] -9.48

[in] Form entry - test system: human ether-à-go-go-related gene (hERG) potassium channel (human, UniProt Q12809); read-out: hERG current change (%, negative = inhibition) at 10uM; molecule: COCCCN1C(=O)c2ccccc2C1C(=O)NC1CCCCCC1 (centres unmarked);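 also: peak tail current of the secondary pulse compared with the same well before compound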
[out] -2.83

[in] Look up hERG current change (%, negative = inhibition) at 10uM with human ether-à-go-go-related gene (hERG) potassium channel (human, UniProt Q12809) for this molecule: `O=C(CCS(=O)(=O)c1cccc2nsnc12)N1CCN(c2ccccc2F)CC1`
[out] -30.3

[in] Which hERG current change (%, negative = inhibition) at 10uM is reported with human ether-à-go-go-related gene (hERG) potassium channel (human, UniProt Q12809) for this entry: `O=C(Nc1ccnn1C1CCN(CCCC2CCCC2)CC1)c1ccccc1` ?
[out] -73.1

[in] Item `Cn1c(=O)n(C)c2cc(C(=O)c3ccccc3)ccc21` with human ether-à-go-go-related gene (hERG) potassium channel (human, UniProt Q12809) - hERG current change (%, negative = inhibition) at 10uM?
[out] -1.74

[in] What reported hERG current change (%, negative = inhibition) at 10uM corresponds to `O=C(Nc1ccnn1C1CCN(C2CCCC2)CC1)c1ccccc1` on human ether-à-go-go-related gene (hERG) potassium channel (human, UniProt Q12809)?
[out] 1.61

[in] Query for human ether-à-go-go-related gene (hERG) potassium channel (human, UniProt Q12809): what hERG current change (%, negative = inhibition) at 10uM does the record show for `COc1ccccc1N1CCN(CC(=O)Nc2ccnn2C2CCCC2)CC1` ?
[out] 3.01

[in] Which measured hERG current change (%, negative = inhibition) at 10uM belongs to `S=C(Nc1ccccc1Oc1ccccc1)NC1CCCC1` , tested on human ether-à-go-go-related gene (hERG) potassium channel (human, UniProt Q12809)?;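 also: peak tail current of the secondary pulse compared with the same well before compound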
[out] -0.79

[in] Please provide the recorded hERG current change (%, negative = inhibition) at 10uM for `Cc1cc(C)n(C(=O)CSc2nc3ccccc3o2)n1` , tested on human ether-à-go-go-related gene (hERG) potassium channel (human, UniProt Q12809).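 Also: peak tail current of the secondary pulse compared with the same well before compound.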
[out] 19.3

[in] Enter reported hERG current change (%, negative = inhibition) at 10uM observed with human ether-à-go-go-related gene (hERG) potassium channel (human, UniProt Q12809) for CC1Cc2ccccc2N1c1ncnc(N)c1[N+](=O)[O-] (centres unmarked)
[out] -24.2
